- Species on record: Cavia porcellus
- protocol: In vitro evaluation on guinea pig trachea. EC50 which is the molar concentration required to give 50% inhibition of the isoproterenol response (1x10E-6M) was determined.
- Type: functional, organism-based
measurement-name: EC50 (nM)

COc1ccc(CCNCC(O)COc2cccc3c2[C@@H]2CCCCC[C@H]32)cc1OC (some centres not stated) = 1100
CC(C)NCC(O)COc1cccc2c1[C@@H]1CCCC[C@H]21 (some centres not stated) = 70
CC(C)(C)NCC(O)COc1ccc2c(c1)[C@@H]1CCCC[C@H]21 (some centres not stated) = 201
CC(C)NCC(O)COc1ccc2c(c1)[C@@H]1CCCC[C@H]21 (some centres not stated) = 502

(1) CC(C)(C)NCC(O)COc1cccc2c1[C@@H]1CCCCC[C@H]21 (some centres not stated)
(2) CC(C)NCC(O)COc1cccc2c1[C@@H]1CCCCC[C@H]21 (some centres not stated)
(3) CC(C)NCC(O)COc1ccc2c(c1)[C@@H]1CCCCC[C@H]21 (some centres not stated)
Query block: Hey, quick one: sort these by EC50, largest value first please. Reply format: the labels, ordered as requested.
Result block: 3, 1, 2
(3: 417 nM, 1: 45.7 nM, 2: 2 nM)
